# testMethodNotes: clinical
# conditionsUsed: human, in vivo, mean AUC of D8 rapamycin
measuredMetric: AUC (ng·h/mL)
One number for each entry, in ng·h/mL.

Exercise: Using the record for CO[C@H]1C[C@@H]2CC[C@@H](C)[C@@](O)(O2)C(=O)C(=O)N2CCCC[C@H]2C(=O)O[C@H]([C@H](C)C[C@@H]2CC[C@@H](O)[C@H](OC)C2)CC(=O)[C@H](C)/C=C(\C)[C@@H](O)[C@@H](OC)C(=O)[C@H](C)C[C@H](C)/C=C/C=C/C=C/1C , report its AUC.
Key: 176

====

# testMethodNotes: clinical
# conditionsUsed: human, in vivo, mean AUC of irinotecan
measuredMetric: AUC (ng·h/mL)
One number for each entry, in ng·h/mL.

Exercise: Using the record for CCc1c2c(nc3ccc(OC(=O)N4CCC(N5CCCCC5)CC4)cc13)-c1cc3c(c(=O)n1C2)COC(=O)[C@]3(O)CC , report its AUC.
Key: 6870

====

# testMethodNotes: clinical
# conditionsUsed: human, in vivo, D8 rapamycin concentrations
measuredMetric: concentration at 8 day (ng/mL)
Numbers only, in ng/mL.

Exercise: Using the record for CO[C@H]1C[C@@H]2CC[C@@H](C)[C@@](O)(O2)C(=O)C(=O)N2CCCC[C@H]2C(=O)O[C@H]([C@H](C)C[C@@H]2CC[C@@H](O)[C@H](OC)C2)CC(=O)[C@H](C)/C=C(\C)[C@@H](O)[C@@H](OC)C(=O)[C@H](C)C[C@H](C)/C=C/C=C/C=C/1C , report its concentration at 8 day.
Key: 6.75

====

# testMethodNotes: clinical
# conditionsUsed: human, in vivo, irinotecan mean AUC
measuredMetric: AUC (ng·h/mL)
Give bare numbers, in ng·h/mL.

Exercise: Using the record for CCc1c2c(nc3ccc(OC(=O)N4CCC(N5CCCCC5)CC4)cc13)-c1cc3c(c(=O)n1C2)COC(=O)[C@]3(O)CC [irinotecan] , report its AUC.
Key: 6740

====

# testMethodNotes: clinical
# conditionsUsed: human, in vivo, mean irinotecan AUCs
measuredMetric: AUC (ng·h/mL)
Give bare numbers, in ng·h/mL.

Exercise: Using the record for CCc1c2c(nc3ccc(OC(=O)N4CCC(N5CCCCC5)CC4)cc13)-c1cc3c(c(=O)n1C2)COC(=O)[C@]3(O)CC , report its AUC.
Key: 5970

Every entry's value here was drawn from paper PMC7656302.
